Measured pEC50, listed per entry.
Target: T1, human αvβ5 expressed on BaF3 cells (stably transfected with human αv and β5 subunits) (human, UniProt P06756 31-1048; P18084 24-799)
T1 construct: also called αvβ5-BaF3; BaF3-hu αvβ5
T1 sequence (P06756 31-1048 limits assumed, chain 1 of 2): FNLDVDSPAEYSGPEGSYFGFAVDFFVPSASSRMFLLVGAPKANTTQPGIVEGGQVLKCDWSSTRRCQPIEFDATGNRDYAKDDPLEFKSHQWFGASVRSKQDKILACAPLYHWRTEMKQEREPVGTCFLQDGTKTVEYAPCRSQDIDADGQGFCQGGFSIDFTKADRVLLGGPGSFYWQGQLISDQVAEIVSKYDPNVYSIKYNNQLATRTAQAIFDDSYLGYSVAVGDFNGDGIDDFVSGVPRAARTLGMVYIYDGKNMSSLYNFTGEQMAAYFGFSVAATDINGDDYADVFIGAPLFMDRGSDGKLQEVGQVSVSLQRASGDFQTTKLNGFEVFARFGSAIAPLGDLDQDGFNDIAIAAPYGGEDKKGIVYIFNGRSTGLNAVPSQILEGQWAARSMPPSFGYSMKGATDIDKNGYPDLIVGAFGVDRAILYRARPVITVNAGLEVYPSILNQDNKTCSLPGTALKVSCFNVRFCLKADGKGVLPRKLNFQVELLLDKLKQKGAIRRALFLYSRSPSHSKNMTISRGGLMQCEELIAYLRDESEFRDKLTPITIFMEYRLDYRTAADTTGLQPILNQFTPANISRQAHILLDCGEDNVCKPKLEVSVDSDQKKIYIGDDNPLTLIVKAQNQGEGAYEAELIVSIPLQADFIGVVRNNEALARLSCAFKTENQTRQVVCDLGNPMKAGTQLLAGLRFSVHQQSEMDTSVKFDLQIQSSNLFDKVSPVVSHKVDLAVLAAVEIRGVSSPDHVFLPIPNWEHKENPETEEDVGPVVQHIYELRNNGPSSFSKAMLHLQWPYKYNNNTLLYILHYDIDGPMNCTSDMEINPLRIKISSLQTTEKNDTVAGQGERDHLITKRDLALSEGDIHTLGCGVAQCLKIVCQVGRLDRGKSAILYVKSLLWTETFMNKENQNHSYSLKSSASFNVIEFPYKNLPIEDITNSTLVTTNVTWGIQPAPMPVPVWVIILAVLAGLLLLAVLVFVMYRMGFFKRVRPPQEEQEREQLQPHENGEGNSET
T1 sequence (P18084 24-799 limits assumed, chain 2 of 2): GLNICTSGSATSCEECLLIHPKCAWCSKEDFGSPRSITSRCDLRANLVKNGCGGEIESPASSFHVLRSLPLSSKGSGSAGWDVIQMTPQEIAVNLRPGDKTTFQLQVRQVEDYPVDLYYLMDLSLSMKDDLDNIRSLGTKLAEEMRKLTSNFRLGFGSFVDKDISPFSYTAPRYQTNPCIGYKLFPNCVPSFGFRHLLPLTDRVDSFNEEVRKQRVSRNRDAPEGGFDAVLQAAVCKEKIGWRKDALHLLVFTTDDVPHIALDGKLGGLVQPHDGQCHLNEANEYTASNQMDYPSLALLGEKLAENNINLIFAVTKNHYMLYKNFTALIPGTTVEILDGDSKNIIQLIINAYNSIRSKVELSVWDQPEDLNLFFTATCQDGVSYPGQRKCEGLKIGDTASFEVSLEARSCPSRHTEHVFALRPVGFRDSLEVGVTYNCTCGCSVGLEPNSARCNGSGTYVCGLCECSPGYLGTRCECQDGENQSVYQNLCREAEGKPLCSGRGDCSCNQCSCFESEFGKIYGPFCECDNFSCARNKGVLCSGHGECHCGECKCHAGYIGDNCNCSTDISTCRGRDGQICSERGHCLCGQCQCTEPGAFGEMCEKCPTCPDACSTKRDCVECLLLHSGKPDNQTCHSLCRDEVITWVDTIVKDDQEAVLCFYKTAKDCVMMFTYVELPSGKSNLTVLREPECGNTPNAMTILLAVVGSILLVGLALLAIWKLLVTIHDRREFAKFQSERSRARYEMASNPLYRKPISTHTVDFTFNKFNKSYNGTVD
Assay: FACS on BaF3-hu αvβ5 cells
Method: FACS Binding Assay: Cells were washed one time in PBS, and then resuspended in FACS buffer (1×PBS, 1% BSA, 1 mM CaCl₂, and 1 mM MgCl₂). 1×10⁶ cells were then incubated on ice for 1 hr in FACS buffer containing the test antibody in a total volume of 50 μl. […] Cell aggregates were removed by filtering through 40 μm filter plates (Millipore) and binding of the labeled secondary antibody was monitored by flow cytometry using a FACS Calibur (BD Biosciences). […]
A value of pEC50 is the negative decimal logarithm of a concentration given in moles per litre.

Known pEC50 results, listed for orientation:
binder	pEC50
Mouse chimeric ALULA (murine ALULA variable domains fused to human IgG1 heavy chain and human kappa light chain domains) (antibody, V domains shown, also called chimeric form of ALULA; chimeric murine antibody) VH: EVQVQQSGTVLARPGASVKMSCKASGYTFTSYWMHWVKQRPGQGLEWIGAIYPGNSDTSYNQKFKGKAKLTAVTSPNTAYMELSSLTNEDSAVYYCTTTTYGYDWFAYWGQGTLVTVSA VL: NIMMTQSPSSLTVSAGEKVTMSCKSSQSVLYSSNQKNYLAWYQQKPGQSPKLLIYWASTRESGVPDRFTGSGSGTDFTLTISSVQAEDLAVYYCHQYLSSLTFGAGTKLELK	8.30
VH5/VL2 Agly-IgG4.P (S228P)/IgG1 (N297Q) (antibody, V domains shown, also called VH5/VL2 (Agly-IgG4P/G1); H5/L2) VH: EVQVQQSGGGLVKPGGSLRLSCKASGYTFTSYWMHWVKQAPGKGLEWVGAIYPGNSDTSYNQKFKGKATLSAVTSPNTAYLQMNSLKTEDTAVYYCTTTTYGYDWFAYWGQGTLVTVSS VL: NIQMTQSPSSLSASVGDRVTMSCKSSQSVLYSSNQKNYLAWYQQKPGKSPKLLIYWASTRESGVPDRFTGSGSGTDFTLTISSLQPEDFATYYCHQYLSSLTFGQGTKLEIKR	8.54
ALULA-H4/L2-IgG4.P(S228P)/IgG1(N297Q) (antibody, V domains shown, Hybrid aglycosylated IgG4.P (S228P)/IgG1 (N297Q) heavy chain, human kappa light chain; also called VH4/VL2 (Agly-IgG4P/G1); H4/L2 antibody) VH: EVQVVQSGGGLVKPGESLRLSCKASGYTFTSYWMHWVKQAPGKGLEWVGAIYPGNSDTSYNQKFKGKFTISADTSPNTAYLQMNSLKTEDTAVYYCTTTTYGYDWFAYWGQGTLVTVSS VL: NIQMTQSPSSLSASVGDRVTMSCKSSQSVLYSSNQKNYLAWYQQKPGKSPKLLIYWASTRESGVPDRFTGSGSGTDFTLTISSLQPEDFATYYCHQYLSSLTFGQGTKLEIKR	8.53

Task item: Using known records, supply pEC50 for VH2/VL2 Agly-IgG4.P (S228P)/IgG1 (N297Q) (antibody, V domains shown, also called VH2/VL2 (Agly-IgG4P/G1); H2/L2) VH: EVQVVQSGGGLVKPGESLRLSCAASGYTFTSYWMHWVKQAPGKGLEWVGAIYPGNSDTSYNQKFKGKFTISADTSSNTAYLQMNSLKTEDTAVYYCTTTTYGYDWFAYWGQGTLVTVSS VL: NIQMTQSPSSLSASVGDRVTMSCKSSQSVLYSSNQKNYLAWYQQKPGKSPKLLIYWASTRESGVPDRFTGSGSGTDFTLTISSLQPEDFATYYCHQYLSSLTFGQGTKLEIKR
Reply: 8.24
